Data provenance: paper PMC3048909

Biological target: human DAT (Homo sapiens)
Sequence (Q01959 whole entry): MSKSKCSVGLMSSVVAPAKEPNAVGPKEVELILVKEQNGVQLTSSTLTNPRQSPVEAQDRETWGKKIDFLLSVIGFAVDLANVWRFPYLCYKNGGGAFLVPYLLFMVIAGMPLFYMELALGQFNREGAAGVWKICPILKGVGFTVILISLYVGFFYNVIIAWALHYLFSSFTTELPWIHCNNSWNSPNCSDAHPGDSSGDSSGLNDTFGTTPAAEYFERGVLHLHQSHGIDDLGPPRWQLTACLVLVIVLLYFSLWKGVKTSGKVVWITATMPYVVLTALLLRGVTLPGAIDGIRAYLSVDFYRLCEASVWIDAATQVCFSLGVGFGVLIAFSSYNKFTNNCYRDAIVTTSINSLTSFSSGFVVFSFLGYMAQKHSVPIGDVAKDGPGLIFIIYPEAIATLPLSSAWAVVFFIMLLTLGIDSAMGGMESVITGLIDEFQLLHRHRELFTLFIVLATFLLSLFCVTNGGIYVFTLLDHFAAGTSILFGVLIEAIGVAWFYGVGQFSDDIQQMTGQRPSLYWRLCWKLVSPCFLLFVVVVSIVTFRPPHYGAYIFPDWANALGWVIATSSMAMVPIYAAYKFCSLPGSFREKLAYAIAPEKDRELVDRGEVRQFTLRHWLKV
Test: [3H]DA uptake inhibition, HEK-293 cells expressing human DAT
Type: cell-based
pIC50: −log10 of the molar value.
If the reported pIC50 equals or exceeds 7, assign true. If not, assign false.

compound | label
CCN1[C@@H](C)[C@H](c2cccc(Cl)c2)OCC1(C)C [(S,S)-5e] | true
CCC[C@@H]1NC(C)(C)CO[C@H]1c1cccc(Cl)c1 [(S,S)-5h] | true
CC[C@@H]1NC(C)(C)CO[C@H]1c1cccc(Cl)c1 [(S,S)-5g] | true
C[C@H]1[C@H](c2cccc(Cl)c2)OCC(C)(C)N1C [(S,S)-5d] | false

Here is the next item to consider.
QUERY: Determine whether measured pIC50 meets or exceeds 7 for C[C@@H]1NC(C)(C)CO[C@H]1c1cccc(Br)c1 [(S,S)-5c]
RESULT: true

====

Tested on: nicotine-induced antinociception (tail-flick)
Assay: Blockade of nicotine-induced antinociception, tail-flick test
Type: in vivo, mice
Settings: Mus musculus, read-out: AD50 Tail-flick
Okay, here is how we bin by ED50: low end (below 0.02 mg/kg), middle (0.02 mg/kg to below 0.06 mg/kg), high end (0.06 mg/kg or more)

compound | label
CC[C@@H]1NC(C)(C)CO[C@H]1c1cccc(Cl)c1 [(S,S)-5g] | low end
C[C@@H]1NC(C)(C)CO[C@H]1c1cccc(Br)c1 [(S,S)-5c] | low end
CCCN1[C@@H](C)[C@H](c2cccc(Cl)c2)OCC1(C)C [(S,S)-5f] | middle
C[C@H]1[C@H](c2cccc(Cl)c2)OCC(C)(C)N1C [(S,S)-5d] | high end
C[C@@H]1NC(C)(C)CO[C@H]1c1cccc(Cl)c1 [(S,S)-5a] | middle
CCN1[C@@H](C)[C@H](c2cccc(Cl)c2)OCC1(C)C [(S,S)-5e] | middle
C[C@H]1NC(C)(C)CO[C@@H]1c1cccc(Cl)c1 [(R,R)-5a] | high end

QUERY: For the record CCC[C@@H]1NC(C)(C)CO[C@H]1c1cccc(Cl)c1 [(S,S)-5h] , report the class its ED50 corresponds to.
RESULT: low end

====

Target: α1*-nAChR (muscle-type α1β1γδ-nAChR) (Homo sapiens, UniProt P02708+P07510+P11230+Q07001)
Sequence (P02708 21-457): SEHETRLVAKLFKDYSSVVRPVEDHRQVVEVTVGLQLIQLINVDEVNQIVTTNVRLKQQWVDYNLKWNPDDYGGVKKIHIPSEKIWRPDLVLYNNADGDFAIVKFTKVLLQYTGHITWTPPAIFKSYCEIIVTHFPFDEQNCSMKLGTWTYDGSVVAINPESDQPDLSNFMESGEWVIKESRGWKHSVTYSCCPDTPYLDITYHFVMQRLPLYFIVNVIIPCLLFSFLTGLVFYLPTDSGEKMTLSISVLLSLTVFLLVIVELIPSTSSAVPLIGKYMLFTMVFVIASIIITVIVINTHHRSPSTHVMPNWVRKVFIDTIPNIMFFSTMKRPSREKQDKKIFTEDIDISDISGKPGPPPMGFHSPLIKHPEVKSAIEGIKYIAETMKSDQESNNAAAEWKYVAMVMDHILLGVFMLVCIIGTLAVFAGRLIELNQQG
Sequence (P11230 24-501): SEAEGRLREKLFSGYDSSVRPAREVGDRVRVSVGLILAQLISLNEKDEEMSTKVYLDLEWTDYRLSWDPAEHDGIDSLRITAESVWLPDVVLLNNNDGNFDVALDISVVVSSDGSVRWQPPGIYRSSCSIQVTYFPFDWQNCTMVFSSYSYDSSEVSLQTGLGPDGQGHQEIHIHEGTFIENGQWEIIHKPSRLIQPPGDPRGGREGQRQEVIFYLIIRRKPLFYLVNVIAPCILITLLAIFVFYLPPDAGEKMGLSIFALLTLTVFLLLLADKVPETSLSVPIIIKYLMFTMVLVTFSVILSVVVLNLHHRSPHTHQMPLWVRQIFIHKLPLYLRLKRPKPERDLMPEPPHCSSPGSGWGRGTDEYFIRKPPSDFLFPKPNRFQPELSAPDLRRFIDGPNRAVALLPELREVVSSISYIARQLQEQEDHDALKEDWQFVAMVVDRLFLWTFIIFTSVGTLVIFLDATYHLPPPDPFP
Sequence (P07510 23-517): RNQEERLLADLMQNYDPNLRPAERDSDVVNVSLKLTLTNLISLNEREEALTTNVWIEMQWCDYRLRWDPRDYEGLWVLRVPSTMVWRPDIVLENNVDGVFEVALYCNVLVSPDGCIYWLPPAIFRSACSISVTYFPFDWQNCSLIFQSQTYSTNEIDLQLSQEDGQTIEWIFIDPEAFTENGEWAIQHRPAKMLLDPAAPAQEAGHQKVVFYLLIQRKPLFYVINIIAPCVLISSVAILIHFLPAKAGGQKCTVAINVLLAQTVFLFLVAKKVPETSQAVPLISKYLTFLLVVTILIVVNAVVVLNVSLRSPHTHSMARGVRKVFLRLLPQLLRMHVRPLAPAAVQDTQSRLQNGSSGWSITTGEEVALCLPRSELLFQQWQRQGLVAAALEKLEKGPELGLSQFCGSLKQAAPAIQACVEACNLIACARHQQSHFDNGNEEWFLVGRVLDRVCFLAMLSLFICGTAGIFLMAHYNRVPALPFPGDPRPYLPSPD
Sequence (Q07001 22-517): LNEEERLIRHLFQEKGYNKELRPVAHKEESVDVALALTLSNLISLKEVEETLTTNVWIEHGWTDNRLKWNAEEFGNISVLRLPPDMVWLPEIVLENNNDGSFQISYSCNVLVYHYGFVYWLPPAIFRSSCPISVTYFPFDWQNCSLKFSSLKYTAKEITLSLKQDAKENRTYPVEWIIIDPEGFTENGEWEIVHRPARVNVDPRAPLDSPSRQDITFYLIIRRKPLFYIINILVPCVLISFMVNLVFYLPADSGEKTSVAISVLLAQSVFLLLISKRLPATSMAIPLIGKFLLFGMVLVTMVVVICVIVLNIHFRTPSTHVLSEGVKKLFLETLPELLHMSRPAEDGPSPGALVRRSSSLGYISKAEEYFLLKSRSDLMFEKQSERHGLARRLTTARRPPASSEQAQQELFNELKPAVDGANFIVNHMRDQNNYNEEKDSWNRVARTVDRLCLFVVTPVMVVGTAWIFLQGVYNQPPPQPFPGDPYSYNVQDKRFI
Experiment: 86Rb+ efflux assay of nAChR function
In this section we review reported IC50 values for a set of compounds.
Give your result in µM as a bare value.

QUERY: Entry C[C@H]1[C@H](c2cccc(Cl)c2)OCC(C)(C)N1C [(S,S)-5d] , system α1*-nAChR (muscle-type α1β1γδ-nAChR) (Homo sapiens, UniProt P02708+P07510+P11230+Q07001): what IC50 was measured?
RESULT: 21

QUERY: Also need C[C@@H]1NC(C)(C)CO[C@H]1c1cccc(F)c1 [(S,S)-5b] , thanks.
RESULT: 34

QUERY: # iterate: C[C@H]1NC(C)(C)CO[C@@H]1c1cccc(Cl)c1 [(R,R)-5a]
RESULT: 9.4

QUERY: Note, next up: C[C@@H]1NC(C)(C)CO[C@H]1c1cccc(Br)c1 [(S,S)-5c]
RESULT: 7.3

QUERY: Same for CCN1[C@@H](C)[C@H](c2cccc(Cl)c2)OCC1(C)C [(S,S)-5e]
RESULT: 14

QUERY: Lookup CCC[C@@H]1NC(C)(C)CO[C@H]1c1cccc(Cl)c1 [(S,S)-5h]
RESULT: 5

QUERY: Then this compound: CCCN1[C@@H](C)[C@H](c2cccc(Cl)c2)OCC1(C)C [(S,S)-5f]
RESULT: 5.5

QUERY: Queued: CC[C@@H]1NC(C)(C)CO[C@H]1c1cccc(Cl)c1 [(S,S)-5g]
RESULT: 13

====

Below is a list of entries, each paired with its recorded IC50 value.
Molecular target: α4β4-nAChR (Homo sapiens, UniProt P30926+P43681)
Sequence (P43681 29-627 limits assumed, one chain of several): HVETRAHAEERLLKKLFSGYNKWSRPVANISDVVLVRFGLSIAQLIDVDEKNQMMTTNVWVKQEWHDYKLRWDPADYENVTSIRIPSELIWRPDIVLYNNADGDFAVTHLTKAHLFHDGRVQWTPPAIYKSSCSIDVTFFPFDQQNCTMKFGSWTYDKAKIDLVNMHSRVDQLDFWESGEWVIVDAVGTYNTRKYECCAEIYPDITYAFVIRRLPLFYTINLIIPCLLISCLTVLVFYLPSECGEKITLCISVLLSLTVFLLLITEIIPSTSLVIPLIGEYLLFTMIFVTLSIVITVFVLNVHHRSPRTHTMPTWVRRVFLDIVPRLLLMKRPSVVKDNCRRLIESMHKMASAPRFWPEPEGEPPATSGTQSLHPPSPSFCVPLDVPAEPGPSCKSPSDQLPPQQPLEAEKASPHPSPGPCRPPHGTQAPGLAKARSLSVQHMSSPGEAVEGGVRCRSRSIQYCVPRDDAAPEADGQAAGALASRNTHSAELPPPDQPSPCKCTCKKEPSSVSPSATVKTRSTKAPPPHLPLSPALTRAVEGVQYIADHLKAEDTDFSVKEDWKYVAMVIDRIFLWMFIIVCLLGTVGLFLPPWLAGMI
Assay: 86Rb+ efflux assay of nAChR function
Field: numeric (µM). Do not append units.

The following molecules have reported results that may help.
molecule | IC50, µM
C[C@@H]1NC(C)(C)CO[C@H]1c1cccc(F)c1 [(S,S)-5b] | 55
C[C@@H]1NC(C)(C)CO[C@H]1c1cccc(Br)c1 [(S,S)-5c] | 11
C[C@H]1[C@H](c2cccc(Cl)c2)OCC(C)(C)N1C [(S,S)-5d] | 23
CC[C@@H]1NC(C)(C)CO[C@H]1c1cccc(Cl)c1 [(S,S)-5g] | 15
CCCN1[C@@H](C)[C@H](c2cccc(Cl)c2)OCC1(C)C [(S,S)-5f] | 5.8
CCN1[C@@H](C)[C@H](c2cccc(Cl)c2)OCC1(C)C [(S,S)-5e] | 6.4

QUERY: What IC50 value was documented for this molecule, CCC[C@@H]1NC(C)(C)CO[C@H]1c1cccc(Cl)c1 [(S,S)-5h] ?
RESULT: 8

====

Biological target: human NET (Homo sapiens, UniProt P23975)
Sequence (P23975 whole entry): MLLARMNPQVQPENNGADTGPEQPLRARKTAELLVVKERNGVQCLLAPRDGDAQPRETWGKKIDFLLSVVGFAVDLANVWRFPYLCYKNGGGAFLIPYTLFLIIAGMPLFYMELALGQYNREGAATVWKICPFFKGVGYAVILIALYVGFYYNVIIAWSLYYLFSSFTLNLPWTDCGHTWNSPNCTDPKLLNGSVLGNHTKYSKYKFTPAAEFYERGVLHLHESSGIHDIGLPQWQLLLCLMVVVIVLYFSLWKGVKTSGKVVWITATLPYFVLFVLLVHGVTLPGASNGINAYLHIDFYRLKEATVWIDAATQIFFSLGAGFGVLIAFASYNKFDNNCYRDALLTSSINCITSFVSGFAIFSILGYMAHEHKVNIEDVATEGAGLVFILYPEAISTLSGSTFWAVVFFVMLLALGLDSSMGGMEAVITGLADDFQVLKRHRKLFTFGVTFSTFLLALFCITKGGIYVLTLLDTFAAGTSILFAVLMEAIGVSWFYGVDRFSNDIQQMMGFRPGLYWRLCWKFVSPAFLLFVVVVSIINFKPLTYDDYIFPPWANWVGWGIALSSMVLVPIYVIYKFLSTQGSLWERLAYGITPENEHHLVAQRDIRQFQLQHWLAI
Test: [3H]NE uptake inhibition, HEK-293 cells expressing human NET
Catalogue of pIC50 readings, one per entry.
To interpret pIC50, take it as minus log10 of a concentration measured in moles per litre.

As a guide, the following entries are already answered.
molecule | pIC50
CCN1[C@@H](C)[C@H](c2cccc(Cl)c2)OCC1(C)C [(S,S)-5e] | 7.62
C[C@H]1[C@H](c2cccc(Cl)c2)OCC(C)(C)N1C [(S,S)-5d] | 6.77
CCCN1[C@@H](C)[C@H](c2cccc(Cl)c2)OCC1(C)C [(S,S)-5f] | 7.89

Attention now turns to another entry.
QUERY: Look at this molecule and give its reported pIC50. C[C@@H]1NC(C)(C)CO[C@H]1c1cccc(Br)c1 [(S,S)-5c]
RESULT: 6.82

====

This listing pairs compounds with measured IC50.
Target: α3β4*-nAChR (Homo sapiens, UniProt P30926+P32297)
Sequence (P32297 32-505): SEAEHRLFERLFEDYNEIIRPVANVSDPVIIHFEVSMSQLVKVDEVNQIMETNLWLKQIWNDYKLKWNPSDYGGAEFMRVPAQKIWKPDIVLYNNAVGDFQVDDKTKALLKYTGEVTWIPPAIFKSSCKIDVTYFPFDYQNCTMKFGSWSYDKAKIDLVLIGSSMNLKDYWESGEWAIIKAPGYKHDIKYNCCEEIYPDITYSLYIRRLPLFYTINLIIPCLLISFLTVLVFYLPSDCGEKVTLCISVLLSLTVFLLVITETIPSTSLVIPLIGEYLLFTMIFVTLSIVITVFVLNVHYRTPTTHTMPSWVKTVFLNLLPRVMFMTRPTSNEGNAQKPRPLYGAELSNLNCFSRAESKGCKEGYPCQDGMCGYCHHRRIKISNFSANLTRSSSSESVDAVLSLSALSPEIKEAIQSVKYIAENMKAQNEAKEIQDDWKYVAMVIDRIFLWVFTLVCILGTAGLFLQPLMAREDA
Sequence (P30926 22-498): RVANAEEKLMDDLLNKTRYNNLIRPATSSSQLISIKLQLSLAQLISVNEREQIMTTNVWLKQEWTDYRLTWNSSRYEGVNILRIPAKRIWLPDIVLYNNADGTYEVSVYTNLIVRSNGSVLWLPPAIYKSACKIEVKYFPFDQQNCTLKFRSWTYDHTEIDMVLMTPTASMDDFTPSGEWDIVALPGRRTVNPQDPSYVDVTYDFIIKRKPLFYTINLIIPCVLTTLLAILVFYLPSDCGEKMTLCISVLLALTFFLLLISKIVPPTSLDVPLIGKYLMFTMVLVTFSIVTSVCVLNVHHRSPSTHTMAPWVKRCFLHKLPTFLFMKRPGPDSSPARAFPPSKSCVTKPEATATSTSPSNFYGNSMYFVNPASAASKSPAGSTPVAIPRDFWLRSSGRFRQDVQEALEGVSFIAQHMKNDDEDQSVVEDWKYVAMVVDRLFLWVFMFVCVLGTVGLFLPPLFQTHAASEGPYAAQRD
Test: 86Rb+ efflux assay of nAChR function

compound | experimental_system | IC50
C[C@@H]1NC(C)(C)CO[C@H]1c1cccc(F)c1 [(S,S)-5b] | α3β4*-nAChR (Homo sapiens, UniProt P30926+P32297) | 5600 nM

QUERY: Reported IC50, compound C[C@@H]1NC(C)(C)CO[C@H]1c1cccc(Br)c1 [(S,S)-5c] : ____
RESULT: 1400 nM

====

Target: α4β2-nAChR (Homo sapiens, UniProt P17787+P43681)
Assay: 86Rb+ efflux assay of nAChR function
Parameter: pIC50. Scope: all listed entries.
The scale used: pIC50 is minus the common logarithm of the concentration in molar units.

compound | pIC50
CC[C@@H]1NC(C)(C)CO[C@H]1c1cccc(Cl)c1 [(S,S)-5g] | 4.85
CCC[C@@H]1NC(C)(C)CO[C@H]1c1cccc(Cl)c1 [(S,S)-5h] | 5.02
CCN1[C@@H](C)[C@H](c2cccc(Cl)c2)OCC1(C)C [(S,S)-5e] | 5.14
C[C@@H]1NC(C)(C)CO[C@H]1c1cccc(F)c1 [(S,S)-5b] | 4.64
CCCN1[C@@H](C)[C@H](c2cccc(Cl)c2)OCC1(C)C [(S,S)-5f] | 4.92
C[C@H]1[C@H](c2cccc(Cl)c2)OCC(C)(C)N1C [(S,S)-5d] | 4.80

In the following, a different compound is considered.
QUERY: Form entry - test system: α4β2-nAChR (Homo sapiens, UniProt P17787+P43681); read-out: pIC50; compound: C[C@@H]1NC(C)(C)CO[C@H]1c1cccc(Br)c1 [(S,S)-5c]
RESULT: 4.92

====

Molecular target: human NET (Homo sapiens, UniProt P23975)
Test: [3H]NE uptake inhibition, HEK-293 cells expressing human NET
Property: pIC50; scope: individual compounds
Would you please state pIC50, meaning minus log10 of the concentration in mol/L, as a bare number?

Solved cases (2 shown):
compound | pIC50
C[C@@H]1NC(C)(C)CO[C@H]1c1cccc(F)c1 [(S,S)-5b] | 7.49
CC[C@@H]1NC(C)(C)CO[C@H]1c1cccc(Cl)c1 [(S,S)-5g] | 7.72

Turning to the following compound.
QUERY: pIC50 lookup needed for CCC[C@@H]1NC(C)(C)CO[C@H]1c1cccc(Cl)c1 [(S,S)-5h] , thanks.
RESULT: 8.05

====

Reported values of IC50 for individual entries
Molecular target: α3β4*-nAChR (Homo sapiens, UniProt P30926+P32297)
Assay: 86Rb+ efflux assay of nAChR function
Give a bare numeral; the unit nM is implied.

compound | property_label | u | experimental_value
C[C@H]1[C@H](c2cccc(Cl)c2)OCC(C)(C)N1C [(S,S)-5d] | IC50 | nM | 2800
CC[C@@H]1NC(C)(C)CO[C@H]1c1cccc(Cl)c1 [(S,S)-5g] | IC50 | nM | 5600
CCC[C@@H]1NC(C)(C)CO[C@H]1c1cccc(Cl)c1 [(S,S)-5h] | IC50 | nM | 3100
CCN1[C@@H](C)[C@H](c2cccc(Cl)c2)OCC1(C)C [(S,S)-5e] | IC50 | nM | 790

Kindly review the next compound as well.
QUERY: Item: CCCN1[C@@H](C)[C@H](c2cccc(Cl)c2)OCC1(C)C [(S,S)-5f] Test system: α3β4*-nAChR (Homo sapiens, UniProt P30926+P32297) Read-out: IC50 Value: ?
RESULT: 980
